From: patent US6602888B2

Target: human histamine H1 receptor (Homo sapiens)
Construct: host or cells: COS-7, transient, DEAE-dextran
Sequence (P35367 whole entry): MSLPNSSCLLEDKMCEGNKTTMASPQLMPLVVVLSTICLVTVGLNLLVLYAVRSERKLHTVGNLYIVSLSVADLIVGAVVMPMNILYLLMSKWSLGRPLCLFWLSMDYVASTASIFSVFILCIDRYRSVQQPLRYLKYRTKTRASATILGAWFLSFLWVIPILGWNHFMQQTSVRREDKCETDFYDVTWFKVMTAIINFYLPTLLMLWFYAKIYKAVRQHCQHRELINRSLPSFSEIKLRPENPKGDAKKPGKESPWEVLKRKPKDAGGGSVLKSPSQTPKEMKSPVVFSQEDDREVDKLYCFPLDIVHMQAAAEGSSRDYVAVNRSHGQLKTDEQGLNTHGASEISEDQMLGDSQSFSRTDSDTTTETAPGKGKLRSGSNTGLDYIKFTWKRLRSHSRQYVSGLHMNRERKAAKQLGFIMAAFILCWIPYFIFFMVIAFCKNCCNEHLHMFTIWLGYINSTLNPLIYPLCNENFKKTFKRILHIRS
Experiment: [3H]mepyramine binding, histamine H1 receptor
experimental_endpoint: pKi
By convention, pKi is the negative base-10 log of a molar concentration.

Data request: Output pKi of COC(=O)C1=C(C)NC(C)=C(C(=O)NCCCN2CCC(c3ccccc3)(c3ccccc3)CC2)C1c1ccc([N+](=O)[O-])cc1.Cl.O (stereo not shown) [Compound 2, hydrochloride hydrate]
Data returned: 7.16

====

Target: calcium channels (Rattus norvegicus)
Construct: from tissue; host or cells: rat cardiac muscle membranes
Sequence (P22002 whole entry, other chains not shown): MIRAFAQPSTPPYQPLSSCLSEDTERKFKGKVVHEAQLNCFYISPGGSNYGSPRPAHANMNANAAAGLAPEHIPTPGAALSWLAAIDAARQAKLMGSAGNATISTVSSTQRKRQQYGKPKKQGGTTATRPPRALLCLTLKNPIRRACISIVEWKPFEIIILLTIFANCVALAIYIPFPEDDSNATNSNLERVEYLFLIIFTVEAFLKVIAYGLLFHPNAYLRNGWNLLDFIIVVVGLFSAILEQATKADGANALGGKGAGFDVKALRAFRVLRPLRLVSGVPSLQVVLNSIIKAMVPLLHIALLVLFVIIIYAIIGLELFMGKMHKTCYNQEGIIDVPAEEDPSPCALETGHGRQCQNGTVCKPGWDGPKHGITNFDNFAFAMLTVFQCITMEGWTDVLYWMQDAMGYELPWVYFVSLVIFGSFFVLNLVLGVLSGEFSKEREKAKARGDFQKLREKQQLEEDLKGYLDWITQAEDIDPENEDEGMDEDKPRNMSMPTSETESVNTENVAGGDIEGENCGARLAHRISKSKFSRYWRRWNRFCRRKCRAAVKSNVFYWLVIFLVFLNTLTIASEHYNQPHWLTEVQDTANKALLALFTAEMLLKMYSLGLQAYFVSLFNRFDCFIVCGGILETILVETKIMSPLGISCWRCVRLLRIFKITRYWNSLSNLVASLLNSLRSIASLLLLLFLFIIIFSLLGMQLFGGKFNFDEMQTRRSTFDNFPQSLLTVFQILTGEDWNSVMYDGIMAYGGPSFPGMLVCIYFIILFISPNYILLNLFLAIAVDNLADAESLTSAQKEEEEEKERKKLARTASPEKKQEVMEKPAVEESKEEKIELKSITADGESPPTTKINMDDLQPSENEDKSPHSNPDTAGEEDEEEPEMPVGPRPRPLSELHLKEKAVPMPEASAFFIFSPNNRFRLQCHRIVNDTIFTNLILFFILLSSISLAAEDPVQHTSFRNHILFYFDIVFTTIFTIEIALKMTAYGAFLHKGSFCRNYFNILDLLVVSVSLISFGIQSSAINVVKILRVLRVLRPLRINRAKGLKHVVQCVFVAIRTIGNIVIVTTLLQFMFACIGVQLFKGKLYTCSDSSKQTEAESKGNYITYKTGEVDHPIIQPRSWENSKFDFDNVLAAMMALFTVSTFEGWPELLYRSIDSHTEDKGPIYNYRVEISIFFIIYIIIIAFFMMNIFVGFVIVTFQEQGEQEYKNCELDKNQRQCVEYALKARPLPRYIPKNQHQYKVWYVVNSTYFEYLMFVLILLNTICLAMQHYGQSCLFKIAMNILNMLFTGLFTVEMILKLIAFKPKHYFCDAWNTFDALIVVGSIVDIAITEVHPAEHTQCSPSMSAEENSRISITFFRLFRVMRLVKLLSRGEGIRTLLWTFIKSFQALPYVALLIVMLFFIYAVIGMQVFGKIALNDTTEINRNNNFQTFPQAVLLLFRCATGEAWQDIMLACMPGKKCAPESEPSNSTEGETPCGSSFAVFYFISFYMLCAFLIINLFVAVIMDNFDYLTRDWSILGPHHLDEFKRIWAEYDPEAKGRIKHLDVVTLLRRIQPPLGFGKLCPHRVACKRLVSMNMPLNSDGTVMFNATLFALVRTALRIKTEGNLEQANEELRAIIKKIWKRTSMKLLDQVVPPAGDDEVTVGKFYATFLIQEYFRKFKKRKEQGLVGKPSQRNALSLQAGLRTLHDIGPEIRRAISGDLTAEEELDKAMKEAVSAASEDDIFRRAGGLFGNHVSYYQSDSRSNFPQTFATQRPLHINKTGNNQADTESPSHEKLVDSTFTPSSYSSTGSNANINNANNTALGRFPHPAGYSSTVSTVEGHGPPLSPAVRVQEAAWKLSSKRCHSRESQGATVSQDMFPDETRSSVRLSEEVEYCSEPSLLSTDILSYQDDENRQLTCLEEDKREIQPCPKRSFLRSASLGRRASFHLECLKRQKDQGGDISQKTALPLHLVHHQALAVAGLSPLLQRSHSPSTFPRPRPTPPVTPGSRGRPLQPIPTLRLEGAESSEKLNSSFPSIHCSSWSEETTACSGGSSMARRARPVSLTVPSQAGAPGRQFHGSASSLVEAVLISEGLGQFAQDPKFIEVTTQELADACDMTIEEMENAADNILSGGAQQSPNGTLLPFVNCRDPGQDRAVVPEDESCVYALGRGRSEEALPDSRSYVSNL
Sequence (P54290 25-944 partner limits assumed, other chains not shown): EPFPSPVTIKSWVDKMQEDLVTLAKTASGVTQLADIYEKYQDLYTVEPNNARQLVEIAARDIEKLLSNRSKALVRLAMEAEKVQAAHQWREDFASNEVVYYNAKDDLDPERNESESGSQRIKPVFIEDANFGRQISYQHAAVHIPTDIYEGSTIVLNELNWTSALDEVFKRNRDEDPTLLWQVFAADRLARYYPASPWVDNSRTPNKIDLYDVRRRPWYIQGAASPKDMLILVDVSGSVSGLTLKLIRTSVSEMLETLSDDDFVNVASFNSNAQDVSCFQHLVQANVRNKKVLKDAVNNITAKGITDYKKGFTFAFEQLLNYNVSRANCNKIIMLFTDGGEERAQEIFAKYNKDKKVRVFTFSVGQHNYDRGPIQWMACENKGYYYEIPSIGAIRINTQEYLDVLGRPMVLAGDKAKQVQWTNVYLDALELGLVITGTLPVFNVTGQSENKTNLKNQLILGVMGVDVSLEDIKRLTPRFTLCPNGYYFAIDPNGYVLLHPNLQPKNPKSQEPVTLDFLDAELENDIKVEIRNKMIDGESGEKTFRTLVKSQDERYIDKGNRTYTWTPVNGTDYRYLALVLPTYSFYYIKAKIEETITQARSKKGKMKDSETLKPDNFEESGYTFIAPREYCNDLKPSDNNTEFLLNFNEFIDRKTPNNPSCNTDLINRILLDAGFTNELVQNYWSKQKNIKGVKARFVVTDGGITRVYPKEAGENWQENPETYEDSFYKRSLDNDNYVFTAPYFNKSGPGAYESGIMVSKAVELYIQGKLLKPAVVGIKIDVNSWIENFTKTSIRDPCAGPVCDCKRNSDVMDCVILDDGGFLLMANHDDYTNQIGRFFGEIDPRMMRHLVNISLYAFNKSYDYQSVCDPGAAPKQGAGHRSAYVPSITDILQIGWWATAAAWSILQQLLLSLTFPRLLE
Sequence (P54290 945-1091 partner limits assumed, other chains not shown): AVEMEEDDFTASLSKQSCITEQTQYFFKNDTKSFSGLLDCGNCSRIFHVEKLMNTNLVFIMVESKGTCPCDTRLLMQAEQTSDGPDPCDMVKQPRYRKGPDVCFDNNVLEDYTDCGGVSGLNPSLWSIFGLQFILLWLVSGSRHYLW
Test: [3H]nitrendipine competition binding, calcium channels, rat cardiac muscle membranes
Settings: Table 2, rat cardiac muscle membranes; read-out: Calcium Channel (pK1) (converted)
experimental_endpoint: Ki (µM)
Write the number in µM without appending the unit.

Data request: Lab note: record Ki of C=Cc1sc2ccc(Cl)c3c2c1CN(C)CC3 [SKF-104856, reference compound] tested on calcium channels (Rattus norvegicus).
Data returned: 20.9

Data request: Lab note: record Ki of `COc1cc2nc(N3CCN(C(=O)c4ccco4)CC3)nc(N)c2cc1OC` tested on calcium channels (Rattus norvegicus).
Data returned: 26.9

Data request: Lab note: record Ki of O=C(NC1CCN(CCc2c[nH]c3ccccc23)CC1)c1ccccc1 [Indoramin, reference compound] tested on calcium channels (Rattus norvegicus).
Data returned: 29.5

Data request: Lab note: record Ki of COc1ccc(CCNCC2CCc3ccccc3C2)cc1 (stereo not shown) tested on calcium channels (Rattus norvegicus).
Data returned: 6.61
